The measured values listed here are drawn from patent US12617773B2.

Each record here notes measured pIC50.
molecular target: human CCR6 (Homo sapiens); construct: expressed in transfected cells; host or cells: HEK-293; experiment: FLIPR assay (inhibition of CCL20-induced calcium signal); type: cell-based; conditions: HEK-293 cells expressing human CCR6; mean values where determined several times; read-out: FLIPR IC50
Sequence (P51684 whole entry): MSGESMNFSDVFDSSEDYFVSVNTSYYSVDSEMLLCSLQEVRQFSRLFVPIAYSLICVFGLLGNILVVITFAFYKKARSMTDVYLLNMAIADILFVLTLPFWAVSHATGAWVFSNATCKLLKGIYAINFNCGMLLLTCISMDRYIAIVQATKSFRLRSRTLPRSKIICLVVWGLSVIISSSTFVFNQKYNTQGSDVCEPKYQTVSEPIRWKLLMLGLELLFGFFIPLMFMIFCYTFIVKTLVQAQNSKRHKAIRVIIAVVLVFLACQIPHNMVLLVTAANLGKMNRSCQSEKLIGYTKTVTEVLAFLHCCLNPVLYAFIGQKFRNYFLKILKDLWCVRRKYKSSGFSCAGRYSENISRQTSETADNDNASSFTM
pIC50: −log10 of the molar value.

compound	pIC50
COc1cc(C(C)(O)C#Cc2cncc([C@@](O)(c3ccc(C(C)C)cc3)C3(C)CN(C)C3)c2)nc(C)n1 (single isomer, unassigned) [Example 631]	7.10
CN1CC(C)(C(O)(c2ccc(OC(F)(F)F)cc2)c2cnc(C#N)c(N3CCCC3)c2)C1 (centres unmarked)	6.99
CN1CC(C)(C(O)(c2ccccc2)c2cncc(N3CCCC3)c2)C1 (centres unmarked)	6.67
CC(C)c1ccc([C@](O)(c2cncc(-c3noc(C4CCN(C(=O)CO)CC4)n3)c2)C2(C)CN(C)C2)cc1	6.56
COc1cc(C(C)(O)C#Cc2cncc([C@@](O)(c3ccc(C(C)C)cc3)C3(C)CN(C)C3)c2)nc(OC)n1 (single isomer, unassigned) [Example 627]	7.94
CN1CC(C)([C@](O)(c2ccc(OC3CCC3)cc2)c2cncc(-c3noc(C(C)(C)O)n3)c2)C1	5.87
CC(C)c1ccc([C@](O)(c2cncc(CC[C@H](C)O)c2)C2(C)CN(C)C2)cc1	6.87
CC(C)c1ccc([C@](O)(c2cncc(N3CC4(CCCC4)CC3=O)c2)C2(C)CN(C)C2)cc1	7.30
Cc1cc(C2(C#Cc3cncc([C@@](O)(c4ccc(C(C)C)cc4)C4(C)CN(C)C4)c3)CC2)ncn1	7.63
CC(C)c1ccc([C@](O)(c2cncc(-c3nc(C4CCN(C(=O)CO)CC4)no3)c2)C2(C)CN(C)C2)cc1	6.87
CC(C)c1ccc([C@](O)(c2cncc(CCC(C)(O)c3n[nH]c4ccccc34)c2)C2(C)CN(C)C2)cc1 (some centres unmarked)	7.77
CC(C)c1ccc([C@](O)(c2cncc(C3=CC(C)(O)CC3)c2)C2(C)CN(C)C2)cc1 (some centres unmarked)	7.21
COCC(=O)NC1(Cc2nc(-c3cncc([C@@](O)(c4ccc(C(C)C)cc4)C4(C)CN(C)C4)c3)no2)CC1	6.54
CC(C)c1ccc([C@](O)(c2cncc(N3CC(c4ccccc4)OC3=O)c2)C2(C)CN(C)C2)cc1 (some centres unmarked)	7.69

====

Target: human CCR6 (Homo sapiens)
Construct: expressed in transfected cells; host or cells: HEK-293
Experiment: FLIPR assay (inhibition of CCL20-induced calcium signal)
Assay type: cell-based
Settings: HEK-293 cells expressing human CCR6; mean values where determined several times; read-out: FLIPR IC50
Experimental: FLIPR assay: The bioactivity of compounds is tested in a fluorometric imaging plate reader (FLIPR: Molecular Devices) using engineered HEK-293 cells expressing the human CCR6 (GenBank: AY242126). […] Changes in fluorescence are monitored before and after addition of the test compounds and agonist. […] The calculated IC50 values may fluctuate depending on the daily assay performance. […]
pIC50: −log10 of the molar value.
Catalogue of compounds with associated pIC50

compound	experimental.target	pIC50
COCCC(=O)N1CCC(c2nc(-c3cncc([C@@](O)(c4ccc(C(C)C)cc4)C4(C)CN(C)C4)c3)no2)CC1	human CCR6 (Homo sapiens)	7.05
CC(C)c1ccc(C(O)(c2cncc(C3CCC(O)C3)c2)C2(C)CN(C)C2)cc1 (stereo not shown)	human CCR6 (Homo sapiens)	6.13
CC(=O)N1CCC(O)(Cc2nc(-c3cncc([C@@](O)(c4ccc(C(C)C)cc4)C4(C)CN(C)C4)c3)no2)CC1	human CCR6 (Homo sapiens)	6.36
CC(C)c1ccc([C@](O)(c2cncc(OC3CCOCC3)c2)C2(C)CN(C)C2)cc1	human CCR6 (Homo sapiens)	7.25
